# Number of Surviving Mice per entry
- assay-name: Life-span-increasing effect on irradiation of a lethal dose of radiation
- Assay type: in vivo, mouse (BDF1)
- reported-conditions: day 30; 10 mice/group; 9 Gy X-ray; 0.1 mg/kg i.v. days 0, 4, 8; controls per series 1, 1, 0, 0, 0, 0
recorded-endpoint: Number of Surviving Mice (mice)

- molecule: "CCCCCCCCCCCCCCCCCCCCCC[C@H](O)C(=O)N[C@@H](CO[C@H]1O[C@H](CO)[C@H](O)[C@H](O)[C@H]1O)[C@H](O)[C@H](O)CCCCCCCCCCCC(C)C [Compound 30]"
  recorded-endpoint: "Number of Surviving Mice"
  observed-result: 10
- molecule: "CCCCCCCCCCCCCCCCCC(=O)N[C@@H](CO[C@H]1O[C@H](CO)[C@H](O)[C@H](O)[C@H]1O)[C@H](O)CCCCCCCCCCCCCCC [Compound 4]"
  recorded-endpoint: "Number of Surviving Mice"
  observed-result: 5
- molecule: "CCCCCCCCCCCCCCCCCCCCCC[C@@H](O)C(=O)N[C@@H](CO[C@H]1O[C@H](CO)[C@H](O)[C@H](O)[C@H]1O)[C@H](O)CCCCCCCCCCCCCCC [Compound 14]"
  recorded-endpoint: "Number of Surviving Mice"
  observed-result: 9
- molecule: "CCCCCCCCCCCCCCCCCCCCCCCC(=O)N[C@@H](CO[C@H]1O[C@H](CO)[C@H](O)[C@H](O)[C@H]1O)[C@H](O)[C@H](O)CCCCCCCCCCC [Compound 18]"
  recorded-endpoint: "Number of Surviving Mice"
  observed-result: 7

###

- Test system: marrow cells (mononuclear cell fraction)
- assay-name: Proliferation-stimulating effect on marrow cell of mouse (3H-TdR uptake)
- Assay type: cell-based, mouse (BALB/c)
- reported-conditions: 10^-1 μg/ml, percentage of control, 72 h
Kindly apply the following: Condition met if activity at 0.1 µg/mL is less than 400%, Condition not met in every other case.

- structure-smiles: "CCCCCCCCCCCCCCCCCCCCCCCCCCCC(=O)N[C@@H](CO[C@H]1O[C@H](CO)[C@H](O)[C@H](O)[C@H]1O)[C@H](O)[C@H](O)CCCCCCCCCCCCC"
  subject-of-test: "marrow cells (mononuclear cell fraction)"
  cat: "Condition met"
- structure-smiles: "CCCCCCCC/C=C\\CCCCCCCC(=O)N[C@@H](CO[C@H]1O[C@H](CO)[C@H](O)[C@H](O)[C@H]1O)[C@H](O)CCCCCCCCCCCCCCC"
  subject-of-test: "marrow cells (mononuclear cell fraction)"
  cat: "Condition met"
- structure-smiles: "CCCCCCCCCCCCCCCCCCCCCC[C@H](O)C(=O)N[C@@H](CO[C@H]1O[C@H](CO)[C@H](O)[C@H](O)[C@H]1O)[C@H](O)[C@H](O)CCCCCCCCCCCC(C)C"
  subject-of-test: "marrow cells (mononuclear cell fraction)"
  cat: "Condition met"
- structure-smiles: "CCCCCCCCCCCCCCCCCCCCCCCC(=O)N[C@@H](CO[C@H]1O[C@H](CO)[C@H](O)[C@H](O)[C@H]1O)[C@H](O)[C@H](O)CCCCCCC"
  subject-of-test: "marrow cells (mononuclear cell fraction)"
  cat: "Condition not met"

###

# Number of Blood Platelets per record follows
- Test system: blood platelets
- assay-name: Blood-platelet-increasing effect upon normal mouse
- Type: in vivo, mouse (BDF1)
- reported-conditions: normal mice; 6 days after 0.1 mg/kg i.v.; mean ± SD; vehicle per series 58.2, 63.0, 71.1
recorded-endpoint: Number of Blood Platelets

- structure-smiles: "CCCCCCCCCCCCCCCCCCCCCCCC(=O)N[C@@H](CO[C@H]1O[C@H](CO)[C@H](O)[C@H](O)[C@H]1O)[C@H](O)[C@H](O)CCCCCCCCCCCCC"
  subject-of-test: "blood platelets"
  recorded-endpoint: "Number of Blood Platelets"
  observed-result: "92.1 ± 11.3 × 10^4 /μl"
- structure-smiles: "CCCCCCCCCCCCCCCCCCCCCCCCCC(=O)N[C@@H](CO[C@H]1O[C@H](CO)[C@H](O)[C@H](O)[C@H]1O)[C@H](O)[C@H](O)CCCCCCCCCCCCCC"
  subject-of-test: "blood platelets"
  recorded-endpoint: "Number of Blood Platelets"
  observed-result: "142.3 ± 10.2 × 10^4 /μl"
- structure-smiles: "CCCCCCCCCCCCCCCCCCCC(=O)N[C@@H](CO[C@H]1O[C@H](CO)[C@H](O)[C@H](O)[C@H]1O)[C@H](O)CCCCCCCCCCCCCCC"
  subject-of-test: "blood platelets"
  recorded-endpoint: "Number of Blood Platelets"
  observed-result: "102.0 ± 10.8 × 10^4 /μl"
- structure-smiles: "CCCCCCCCCCCCCCCCCC(=O)N[C@@H](CO[C@H]1O[C@H](CO)[C@H](O)[C@H](O)[C@H]1O)[C@H](O)CCCCCCCCCCCCCCC"
  subject-of-test: "blood platelets"
  recorded-endpoint: "Number of Blood Platelets"
  observed-result: "83.1 ± 6.5 × 10^4 /μl"
- structure-smiles: "CCCCCCCCCCCCCCCCCCCCCC[C@@H](O)C(=O)N[C@@H](CO[C@H]1O[C@H](CO)[C@H](O)[C@H](O)[C@H]1O)[C@H](O)CCCCCCCCCCCCCCC"
  subject-of-test: "blood platelets"
  recorded-endpoint: "Number of Blood Platelets"
  observed-result: "101.6 ± 8.3 × 10^4 /μl"
- structure-smiles: "CCCCCCCCCCCCCCC[C@@H](O)[C@H](CO[C@H]1O[C@H](CO)[C@H](O)[C@H](O)[C@H]1O)NC(=O)CCCCCCCCCCCCC"
  subject-of-test: "blood platelets"
  recorded-endpoint: "Number of Blood Platelets"
  observed-result: "106.0 ± 9.0 × 10^4 /μl"
- structure-smiles: "CCCCCCCCCCCCCCCCCCCCCCCC[C@@H](O)C(=O)N[C@@H](CO[C@H]1O[C@H](CO)[C@H](O)[C@H](O)[C@H]1O)[C@H](O)[C@H](O)CCCCCCCCCCCCCCCC"
  subject-of-test: "blood platelets"
  recorded-endpoint: "Number of Blood Platelets"
  observed-result: "101.3 ± 7.1 × 10^4 /μl"
- structure-smiles: "CCCCCCCCCCCCCCCCCCCCCC[C@@H](O)C(=O)N[C@@H](CO[C@H]1O[C@H](CO)[C@H](O)[C@H](O)[C@H]1O)[C@H](O)[C@H](O)CCCCCCC"
  subject-of-test: "blood platelets"
  recorded-endpoint: "Number of Blood Platelets"
  observed-result: "102.6 ± 9.9 × 10^4 /μl"
- structure-smiles: "CCCCCCCCCCCCCCCCCCCCCC[C@H](O)C(=O)N[C@@H](CO[C@H]1O[C@H](CO)[C@H](O)[C@H](O)[C@H]1O)[C@H](O)[C@H](O)CCCCCCCCCCCC(C)C"
  subject-of-test: "blood platelets"
  recorded-endpoint: "Number of Blood Platelets"
  observed-result: "106.2 ± 9.0 × 10^4 /μl"
- structure-smiles: "CCCCCCCCCCCCCCCCCCCCCCCCCC(=O)N[C@@H](CO[C@H]1O[C@H](CO)[C@H](O)[C@H](O)[C@H]1O)[C@H](O)[C@H](O)CCCCCCCCCCCCC"
  subject-of-test: "blood platelets"
  recorded-endpoint: "Number of Blood Platelets"
  observed-result: "110.9 ± 10.6 × 10^4 /μl"
- structure-smiles: "CCCCCCCCCCCCCCCCCCCCCCCCCCCC(=O)N[C@@H](CO[C@H]1O[C@H](CO)[C@H](O)[C@H](O)[C@H]1O)[C@H](O)[C@H](O)CCCCCCCCCCCCC"
  subject-of-test: "blood platelets"
  recorded-endpoint: "Number of Blood Platelets"
  observed-result: "110.1 ± 9.0 × 10^4 /μl"
- structure-smiles: "CCCCCCCCCCCCCCCCCCCCCCCC(=O)N[C@@H](CO[C@H]1O[C@H](CO)[C@H](O)[C@H](O)[C@H]1O)[C@H](O)[C@H](O)CCCCCCC"
  subject-of-test: "blood platelets"
  recorded-endpoint: "Number of Blood Platelets"
  observed-result: "106.4 ± 12.7 × 10^4 /μl"
- structure-smiles: "CCCCCCCCCCCCCCCCCCCCCC[C@H](O)C(=O)N[C@@H](CO[C@H]1O[C@H](CO)[C@H](O)[C@H](O)[C@H]1O)[C@H](O)[C@H](O)CCCCCCCCCCCCC"
  subject-of-test: "blood platelets"
  recorded-endpoint: "Number of Blood Platelets"
  observed-result: "103.6 ± 8.8 × 10^4 /μl"
- structure-smiles: "CCCCCCCCCCCCCCCCCCCCCC(=O)N[C@@H](CO[C@H]1O[C@H](CO)[C@H](O)[C@H](O)[C@H]1O)[C@H](O)CCCCCCCCCCCCCCC"
  subject-of-test: "blood platelets"
  recorded-endpoint: "Number of Blood Platelets"
  observed-result: "96.3 ± 7.3 × 10^4 /μl"
- structure-smiles: "CCCCCCCCCCCCCCCCCCCCCCCC(=O)N[C@@H](CO[C@H]1O[C@H](CO)[C@H](O)[C@H](O)[C@H]1O)[C@H](O)CCCCCCCCCCC"
  subject-of-test: "blood platelets"
  recorded-endpoint: "Number of Blood Platelets"
  observed-result: "100.5 ± 8.3 × 10^4 /μl"
